Recorded measurements of inhibition at 10 µM, one per entry
Measured target: NO synthase (Rattus norvegicus, UniProt P29476)
Construct: the supernatant was then removed by decantation and frozen in portions at −80° C; from tissue; host or cells: rat cerebellum, 20,000 g supernatant of homogenate
Test details: HTS-NOS assay (NOS assay): conversion of radioactive arginine, cation-exchanger filter plate
Format: biochemical
Experimental setup: read-out: HTS-NOS assay: % inhibition (10 μM)
Report field: quantity (unit follows the number).

COc1ccccc1-c1nc2cc(C)cc(C)n2c1NC(C)(C)CC(C)(C)C; 61%
CC(=O)N(c1c(C)nc2cc(C)cc(C)n12)C(C)(C)CC(C)(C)C; 60%

## Task Endpoint output: inhibition at 10 µM of CC(=O)N(c1c(-c2c(F)cccc2Cl)nc2c(C)cc(Br)cn12)C1CCCCC1 . Value?
## Result 51%

## Task Queued: CC(=O)N(c1c(-c2ccc(C(=O)O)o2)nc2cc(C)ccn12)C(C)(C)CC(C)(C)C
## Result 65%

###

Measured target: NO synthase (Rattus norvegicus, UniProt P29476)
Construct: the supernatant was then removed by decantation and frozen in portions at −80° C; from tissue; host or cells: rat cerebellum, 20,000 g supernatant of homogenate
Test details: HTS-NOS assay (NOS assay): conversion of radioactive arginine, cation-exchanger filter plate
Format: biochemical
Experimental setup: read-out: HTS-NOS assay: % inhibition (10 μM)
Recorded measurements of inhibition at 10 µM, one per entry
Lab book: enter the figure in %, no units written.

COc1ccccc1-c1nc2cc(C)ccn2c1NC(C)(C)CC(C)(C)C [Example 101]; 58
Cc1cc(C)n2c(NC(C)(C)C)c(-c3ccco3)nc2c1 [Example 25]; 60
CCCCN(C(C)=O)c1c(-c2ccc(C)cc2)nc2nc(C)ccn12 [Example 287]; 58
CC(=O)N(c1c(-c2ccco2)nc2cc(C)ccn12)C(C)(C)CC(C)(C)C [Example 149]; 55
CC(=O)N(c1c(C)cccc1C)c1c(-c2cccc(Cl)c2Cl)nc2cc(C)ccn12 [Example 160]; 55

## Task Endpoint output: inhibition at 10 µM of CCc1ccn2c(NCc3ccccc3Cl)c(-c3ccc([N+](=O)[O-])o3)nc2c1 [Example 314] . Value?
## Result 47

## Task Queued: CC(=O)N(c1c(C)cccc1C)c1c(-c2ccc(Cl)cc2Cl)nc2ccccn12 [Example 247]
## Result 56

## Task Queued: CC(=O)N(c1c(-c2ccc(C3OCCO3)o2)nc2cc(C)ccn12)C(C)(C)CC(C)(C)C [Example 196]
## Result 54

## Task Queued: Cc1cc(C)n2c(NC3CCCCC3)c(-c3ccco3)nc2c1 [Example 26]
## Result 62

###

Measured target: NO synthase (Rattus norvegicus)
Construct: the supernatant was then removed by decantation and frozen in portions at −80° C; from tissue; host or cells: rat cerebellum, 20,000 g supernatant of homogenate
Test details: HTS-NOS assay (NOS assay): conversion of radioactive arginine, cation-exchanger filter plate
Type: biochemical
Experimental setup: 10 μM
Could you label it Criterion met if measured HTS-NOS assay: % inhibition (10 μM) is 60% or higher, and Criterion not met otherwise?

[C-]#[N+]CCCCCCNc1c(-c2ccc(C)cc2)nc2cc(C)ccn12; Criterion met
CC(=O)OCc1ccc(-c2nc3ncccn3c2N(C(C)=O)C(C)(C)CC(C)(C)C)o1; Criterion not met
[C-]#[N+]CCCCCCNc1c(-c2cccc(O)c2)nc2c(C)cccn12; Criterion not met

## Task Kindly determine if HTS-NOS assay: % inhibition (10 μM) recorded for CC(=O)OCc1ccc(-c2nc3cc(C)cc(C)n3c2N(C(C)=O)C2CCCCC2)o1 is above or exactly 60%.
## Result Criterion not met

## Task Queued: CC(=O)OCc1ccc(-c2nc3cc(C)cc(C)n3c2NC2CCCCC2)o1
## Result Criterion met

## Task Queued: [C-]#[N+]CCCCCCNc1c(-c2ccccn2)nc2cc(C)ccn12
## Result Criterion not met

## Task Queued: C#[N+]CCCCCCNc1c(-c2cccc3ccccc23)nc2cc(C)cc(C)n12
## Result Criterion met

Data provenance is patent US20040023972A1.
